- ASSAY SUMMARY: Aqueous solubility at 20° C., shake-flask, stepwise water addition (Example 2)
- Type: physicochemical
- ASSAY SETUP: water, 20 °C, water, thermodynamic from solid, 20° C.; XRPD: Crystalline
- Protocol: The Aramchol salts of the present invention were further assessed for their solubility in water. […] 5 mg of each salt was weighed. Water was added stepwise until a clear solution was obtained (Table 2, solubility in water). The pH of each solution was measured (Table 2, pH after solubility).
QUANTITY: solubility

Looking up CCCCCCCCCCCCCCCCCCCC(=O)N[C@H]1CC[C@@]2(C)[C@@H](C1)C[C@@H](O)[C@@H]1[C@@H]2C[C@H](O)[C@]2(C)[C@@H]([C@H](C)CCC(=O)O)CC[C@@H]12 , I see its solubility listed as 32 to 95 mg/mL

====

- ASSAY SUMMARY: Saturated solubility in buffer solutions and bio-relevant media at 37° C. (Example 6)
- Assay type: physicochemical
- ASSAY SETUP: thermodynamic from solid; Demi-Water (pH 7.8), 30 min, 37° C.
QUANTITY: solubility at 30 min (mg/mL)
Your answer is read as mg/mL, so omit the unit and give the number.

Recorded solubility at 30 min (compound CCCCCCCCCCCCCCCCCCCC(=O)N[C@H]1CC[C@@]2(C)[C@@H](C1)C[C@@H](O)[C@@H]1[C@@H]2C[C@H](O)[C@]2(C)[C@@H]([C@H](C)CCC(=O)O)CC[C@@H]12 ): 45

====

- ASSAY SUMMARY: Saturated solubility in buffer solutions and bio-relevant media at 37° C. (Example 6)
- Assay type: physicochemical
- ASSAY SETUP: saline or isotonic, thermodynamic from solid; Saline pH 5.5, 30 min, 37° C.
QUANTITY: solubility at 30 min (µg/mL)
The reply should contain only the number, in µg/mL.

Value of measured solubility at 30 min for the entry CCCCCCCCCCCCCCCCCCCC(=O)N[C@H]1CC[C@@]2(C)[C@@H](C1)C[C@@H](O)[C@@H]1[C@@H]2C[C@H](O)[C@]2(C)[C@@H]([C@H](C)CCC(=O)O)CC[C@@H]12 : 30

====

- ASSAY SUMMARY: Twice daily administration for 10 days of Aramchol and Aramchol meglumine in humans (Example 9)
- Type: in vivo
- ASSAY SETUP: human, blood, BID, free acid 300 mg, meglumine salt 383 mg
QUANTITY: AUC
The answer should read as a number with its unit following.

Reported AUC ( CCCCCCCCCCCCCCCCCCCC(=O)N[C@H]1CCC2(C)C(CC(O)C3C2C[C@H](O)C2(C)C(C(C)CCC(=O)O)CCC32)C1 (stereo in doubt) [Aramchol (free acid), reference compound] ) = 53000 ng·h/mL

====

- ASSAY SETUP: water; Aramchol free acid and base 1:1; 50° C.
QUANTITY: Dissolved (50 in g in 1) at 50° C.

MOLECULE	QUANTITY	RECORDED MEASUREMENT
CN(C)CCO [Deanol]	Dissolved (50 in g in 1) at 50° C.	Yes
CCCCCCCCCCCCCCCCCCCC(=O)N[C@H]1CC[C@@]2(C)[C@@H](C1)C[C@@H](O)[C@@H]1[C@@H]2C[C@H](O)[C@]2(C)[C@@H]([C@H](C)CCC(=O)O)CC[C@@H]12 [Tromethamine]	Dissolved (50 in g in 1) at 50° C.	No
c1ccc(CNCCNCc2ccccc2)cc1 [Benzathine]	Dissolved (50 in g in 1) at 50° C.	No
CCNCC [Diethylamine]	Dissolved (50 in g in 1) at 50° C.	Yes

====

- ASSAY SUMMARY: Saturated solubility in buffer solutions and bio-relevant media at 37° C. (Example 6)
- Format: physicochemical
- ASSAY SETUP: simulated gastric fluid, thermodynamic from solid; HCl buffer pH 1.2, 30 min, 37° C.
QUANTITY: solubility at 30 min (µg/mL)
Write the number in µg/mL without appending the unit.

Measured solubility at 30 min, CCCCCCCCCCCCCCCCCCCC(=O)N[C@H]1CC[C@@]2(C)[C@@H](C1)C[C@@H](O)[C@@H]1[C@@H]2C[C@H](O)[C@]2(C)[C@@H]([C@H](C)CCC(=O)O)CC[C@@H]12 [Tromethamine] : 20

====

- ASSAY SUMMARY: in vivo
- ASSAY SETUP: dog, in vivo, 100 mg
QUANTITY: AUC (µg·h/mL)
The reply should be a number in µg·h/mL, with the unit left off.

Summary for this compound, CCCCCCCCCCCCCCCCCCCC(=O)N[C@H]1CCC2(C)C(CC(O)C3C2C[C@H](O)C2(C)C(C(C)CCC(=O)O)CCC32)C1 (stereo in doubt) [Aramchol (free acid), reference compound] : AUC is 901

====

- ASSAY SUMMARY: in vivo
- ASSAY SETUP: dog, in vivo
QUANTITY: clearance (mL/min)
Reply with just the number (in mL/min).

Reported clearance for CCCCCCCCCCCCCCCCCCCC(=O)N[C@H]1CCC2(C)C(CC(O)C3C2C[C@H](O)C2(C)C(C(C)CCC(=O)O)CCC32)C1 (stereo in doubt) [Aramchol (free acid), reference compound] was 6.82

====

- ASSAY SUMMARY: Saturated solubility in buffer solutions and bio-relevant media at 37° C. (Example 6)
- Format: physicochemical
- ASSAY SETUP: aqueous buffer, thermodynamic from solid; Phosphate buffer pH 7.0, 30 min, 37° C.
QUANTITY: solubility at 30 min (mg/mL)
All answers are understood in mg/mL, so give the number only.

Measured solubility at 30 min of CCCCCCCCCCCCCCCCCCCC(=O)N[C@H]1CC[C@@]2(C)[C@@H](C1)C[C@@H](O)[C@@H]1[C@@H]2C[C@H](O)[C@]2(C)[C@@H]([C@H](C)CCC(=O)O)CC[C@@H]12 : 29.4

====

- ASSAY SUMMARY: Solubility of Aramchol (free acid) in aqueous media
- Assay type: physicochemical
- ASSAY SETUP: FeSSIF, pH 5, fessif; read-out: max solubility in FeSSIF
QUANTITY: solubility (µg/mL)
I only need the number, in µg/mL, no unit after it.

CCCCCCCCCCCCCCCCCCCC(=O)N[C@H]1CCC2(C)C(CC(O)C3C2C[C@H](O)C2(C)C(C(C)CCC(=O)O)CCC32)C1 (stereo in doubt) [Aramchol (free acid), reference compound] has a reported solubility of 660

====

- ASSAY SUMMARY: In vivo permeability / PK after intrajejunal administration in cannulated rats (Example 7)
- Set-up: species or system male Wistar rats
- ASSAY SETUP: male, Wistar, plasma, rat, 100 mg/kg, median, read-out: Tmax
I'd appreciate it if you could supply Tmax values for the items below.

The reported value for CCCCCCCCCCCCCCCCCCCC(=O)N[C@H]1CC[C@@]2(C)[C@@H](C1)C[C@@H](O)[C@@H]1[C@@H]2C[C@H](O)[C@]2(C)[C@@H]([C@H](C)CCC(=O)O)CC[C@@H]12 in terms of Tmax is 2 h

Entry under test: CCCCCCCCCCCCCCCCCCCC(=O)N[C@H]1CCC2(C)C(CC(O)C3C2C[C@H](O)C2(C)C(C(C)CCC(=O)O)CCC32)C1 (stereo in doubt) [Aramchol (free acid), reference compound] . Its Tmax was 4 h

====

- ASSAY SUMMARY: Saturated solubility in buffer solutions and bio-relevant media at 37° C. (Example 6)
- Type: physicochemical
- ASSAY SETUP: simulated gastric fluid, thermodynamic from solid; HCl buffer pH 1.2, 24 h, 37° C.
QUANTITY: solubility at 24 h (µg/mL)
Give a bare numeral; the unit µg/mL is implied.

Briefly, solubility at 24 h measured for CCCCCCCCCCCCCCCCCCCC(=O)N[C@H]1CC[C@@]2(C)[C@@H](C1)C[C@@H](O)[C@@H]1[C@@H]2C[C@H](O)[C@]2(C)[C@@H]([C@H](C)CCC(=O)O)CC[C@@H]12 : 290

====

- ASSAY SUMMARY: Saturated solubility in buffer solutions and bio-relevant media at 37° C. (Example 6)
- Assay type: physicochemical
- ASSAY SETUP: thermodynamic from solid; FaSSIF (pH 6.5), 30 min, 37° C.
QUANTITY: solubility at 30 min (µg/mL)
Kindly provide the numeric value in µg/mL only, without the unit symbol.

Input CCCCCCCCCCCCCCCCCCCC(=O)N[C@H]1CCC2(C)C(CC(O)C3C2C[C@H](O)C2(C)C(C(C)CCC(=O)O)CCC32)C1 (stereo in doubt) [Aramchol (free acid), reference compound] . Output solubility at 30 min: 50

====

What Mass uptake (DVS) was measured for each of the following?
- ASSAY SUMMARY: Dynamic Vapour Sorption (DVS)
- Format: physicochemical
- ASSAY SETUP: RH raised from 0% in 10% steps to 95% RH; stepwise, reversible

Recorded result, CCNCC [Diethylamine] , Mass uptake (DVS): 14.8% (stepwise; reversible)

Data point: CN(C)CCO [Deanol] ; Mass uptake (DVS) = 17.3% (stepwise; reversible)

The value of Mass uptake (DVS) measured for the molecule CCCCCCCCCCCCCCCCCCCC(=O)N[C@H]1CC[C@@]2(C)[C@@H](C1)C[C@@H](O)[C@@H]1[C@@H]2C[C@H](O)[C@]2(C)[C@@H]([C@H](C)CCC(=O)O)CC[C@@H]12 [Tromethamine] turned out to be 9.4% (stepwise; reversible)

For record NCCO [Ethanolamine] the listed Mass uptake (DVS) is 13.2% (stepwise; reversible)
